- Test target: UniProtKB P24228
Property: IC50

These solved cases illustrate the format of a correct answer.
1. NC(=O)[C@@H]1CC[C@@H]2CN1C(=O)N2OS(=O)(=O)O | > 10 mM
2. CO/N=C(\C(=O)N[C@@H]1C(=O)N2C(C(=O)[O-])=C(C[N+]3(C)CCCC3)CS[C@H]12)c1csc(N)n1 [cefepime] | > 10 mM
3. C[C@H]1[C@H](NC(=O)/C(=N\OC(C)(C)C(=O)O)c2csc(N)n2)C(=O)N1S(=O)(=O)O | > 10 mM

Q. Would you mind telling me what IC50 value was observed for "C[C@@H](O)[C@H]1C(=O)N2C(C(=O)O)=C(S[C@@H]3CN[C@H](C(=O)N(C)C)C3)[C@H](C)[C@H]12" ?
A. > 10 mM

This collection of values is drawn from paper PMC10040144.
